Test system: RXF 631
Assay: NCI tumour cell line growth inhibition, 48 h
Calls of active or inactive are those of the source. Rule as the data show it: active = GI50 up to about 1.1 µM and inactive = higher. Starred links: 1 amine or outer side, 2 acyl side, 3 side chain; linkers in the order of their positions; H or OH if unused. Non-standard residues stand in square brackets, D forms with d. Residues, ends and D or L forms follow the SMILES beside them. ξ: configuration not given here. Ile(3ξ) = CCC(C)[C@H](N)C(=O)O; X35 = C=CCC(O[*:1])C(=O)[*:2]; NMeV = CN[C@H](C(=O)O)C(C)C; NMeA = CN[C@@H](C)C(=O)O; βAla = NCCC(=O)O

{"columns": ["compound", "GI50"],
 "data": [
  ["CCCCCC/C=C/CCCCCCCc1cccc(O)c1C(=O)O", "> 100 µM (inactive)"],
  ["O=C(COC(=O)c1cccc2c(=O)c3ccccc3[nH]c12)Nc1ccc(C(=O)O)cc1", "> 100 µM (inactive)"],
  ["NC(CCCNCc1ccccc1)C(=O)O (stereo not drawn)", "> 100 µM (inactive)"],
  ["COc1ccc(C=C(c2ccc(OCc3ccccc3)cc2)c2ccc(OCc3ccccc3)cc2)cc1", "> 100 µM (inactive)"],
  ["O=C1C2=C(C(c3ccccc3)=C1c1ccccc1)c1ccccc1C1(c3ccccc3)C2=C(O)C(c2ccccc2)=C1c1ccccc1 (stereo not drawn)", "> 100 µM (inactive)"],
  ["C/C(=N\\NC(=O)CC#N)c1c(O)cc(C)oc1=O", "> 100 µM (inactive)"],
  ["C=CCC1OC(=O)CCNC(=O)[C@H](C)N(C)C(=O)[C@H](C(C)C)N(C)C(=O)[C@H](C(C)CC)NC(=O)[C@@H]2CCCN2C1=O (stereo partly drawn) (cyclo([Ile(3ξ)][NMeV][NMeA][βAla][X35]P))", "4.92 µM (inactive)"],
  ["O=C(/C=C\\c1cccc2ccccc12)c1cccc2ccccc12", "7.89 µM (inactive)"],
  ["CCCCC[C@@H]1CCCC2NC(CCCCCO[Si](c3ccccc3)(c3ccccc3)C(C)(C)C)CCC21 (stereo partly drawn)", "11.5 µM (inactive)"],
  ["O=C1CCCCC12CCC/C2=N\\O (stereo not drawn)", "> 100 µM (inactive)"],
  ["N#CCCN(c1ccc(/C=N/c2cccc([N+](=O)[O-])c2)cc1)S(=O)(=O)c1ccccc1", "> 100 µM (inactive)"],
  ["CC(C)(C)CC(C)(C)c1cc2c(O)c(c1)Cc1cc(C(C)(C)CC(C)(C)C)cc(c1O)Cc1cc(C(C)(C)CC(C)(C)C)cc(c1O)Cc1cc(C(C)(C)CC(C)(C)C)cc(c1O)Cc1cc(C(C)(C)CC(C)(C)C)cc(c1O)Cc1cc(C(C)(C)CC(C)(C)C)cc(c1O)C2", "> 100 µM (inactive)"],
  ["CCSC1=C(C)N(/C=N/C(C)(C)C)CC1", "> 100 µM (inactive)"]
]}

---

System: ACHN
Test: NCI tumour cell line growth inhibition, 48 h
Active and inactive are the calls of the source. Cut-off read from the data, not from the text of the source: active = GI50 up to about 1.1 µM and inactive = higher.
experimental endpoint: GI50

{"columns": ["chemical string", "experimental endpoint", "result"],
 "data": [
  ["O=c1c(C(c2ccc(/C=C/c3ccccc3)cc2)c2c(O)oc3cc(O)ccc3c2=O)c(O)oc2cc(O)ccc12", "GI50", "> 100 µM (inactive)"],
  ["O=c1c2cc(S(=O)(=O)Nc3c(Cl)cccc3Cl)ccc2ncn1NS(=O)(=O)c1ccc2ccccc2c1", "GI50", "> 62.5 µM (inactive)"],
  ["CCOC(=O)C1=C(c2ccccc2)N(C(C)=O)Cc2ccccc21", "GI50", "16.1 µM (inactive)"],
  ["O=C(CCCCCCCCC(=O)OCCCn1cc(C(=O)NC(=O)OCc2ccccc2)c(=O)[nH]c1=O)OCCCn1cc(C(=O)NC(=O)OCc2ccccc2)c(=O)[nH]c1=O", "GI50", "> 100 µM (inactive)"]
]}
